# System: OCI-AML2;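 further: after 48 h exposure read by CellTiter-Glo luminescence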
# TEST SUMMARY: cell viability relative to vehicle control; higher = less cytotoxic
# CONDITION CONTEXT: 10 µM; SRSF2 genotype: wt/wt
In this section we review reported cell viability values for a set of compounds.
Lab book: enter the figure in %, no units written.

Completed entries (count: 2):
COc1cc(-c2oc3cc(O)cc(O)c3c(=O)c2OC2OC(COC3OC(C)C(O)C(O)C3O)C(O)C(O)C2OC2OC(C)C(O)C(O)C2O)ccc1O (stereo not drawn) [Typhaneoside]: 105
CC(C)Oc1ccc(C(=O)N[C@H](CNC(=O)CN(C)C)Cc2ccc(-c3cn4cccc([C@H](C)O)c4n3)cc2)cc1Cl: 14.5

Now consider the entry below.
Return value of cell viability for input CCOC(=O)/C=C/c1ccc(O)c(O)c1 [Ethyl caffeate] , no commentary.
77.7

* * *

# Tested on: OCI-AML2;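 further: after 48 h exposure read by CellTiter-Glo luminescence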
# TEST SUMMARY: cell viability relative to vehicle control; higher = less cytotoxic
# CONDITION CONTEXT: 10 µM; SRSF2 genotype: P95H/wt
Counter-ions that a name gives are not always drawn.
ASSAY ENDPOINT: cell viability

O=C(Cn1ccnc1[N+](=O)[O-])NCc1ccccc1: 103%

Please look at CO/N=C(\C(=O)N[C@@H]1C(=O)N2C(C(=O)[O-])=C(C[N+]3(C)CCCC3)CS[C@H]12)c1csc(N)n1 [Cefepime Dihydrochloride Monohydrate] and tell me its recorded cell viability on OCI-AML2.
104%

Please look at "Cc1c(F)cc(C(=O)NC2CC2)cc1-c1ccc(C(=O)NCC(C)(C)C)cn1" and tell me its recorded cell viability on OCI-AML2.
86.7%

Please look at "Fc1cc(-c2cccc3ncc(-c4cnn(C5CCNCC5)c4)nc23)cc(F)c1CN1CCOCC1" and tell me its recorded cell viability on OCI-AML2.
0.94%

Please look at "COc1cc2ncnc(Oc3ccc(CC(=O)Nc4cnn(C(C)C)c4)cc3)c2cc1OC" and tell me its recorded cell viability on OCI-AML2.
36.1%

Please look at "C=CCc1cccc(/C=N/NC(=O)CN2CCN(Cc3ccccc3)CC2)c1O" and tell me its recorded cell viability on OCI-AML2.
19.2%

Please look at CCCCCOc1ccccc1/C(=C\SC)n1ccnc1 [Neticonazole Hydrochloride] and tell me its recorded cell viability on OCI-AML2.
25.7%

Please look at CCOCC(O)COc1ccc(NC(=O)CC[S+](C)C)cc1 (configuration not stated) [Suplatast tosylate] and tell me its recorded cell viability on OCI-AML2.
97.7%

Please look at CC(CNC(=O)c1cccnc1)NC(=O)c1cccnc1 (configuration not stated) and tell me its recorded cell viability on OCI-AML2.
101%

Please look at CN[C@H]1CN(c2ccc3c(=O)c(C(=O)O)cn(-c4nccs4)c3n2)C[C@@H]1OC [Voreloxin (SNS-595) hydrochloride] and tell me its recorded cell viability on OCI-AML2.
15.6%

Please look at CC1(C)[C@@H](O[C@H]2O[C@H](C(=O)O)[C@@H](O)[C@H](O)[C@H]2O[C@@H]2O[C@H](C(=O)O)[C@@H](O)[C@H](O)[C@H]2O)CC[C@]2(C)[C@H]3C(=O)C=C4[C@@H]5C[C@@](C)(C(=O)O)CC[C@]5(C)CC[C@@]4(C)[C@]3(C)CC[C@@H]12 [Ammonium Glycyrrhizinate (AMGZ)] and tell me its recorded cell viability on OCI-AML2.
112%
